Where do the numbers come from? From patent US8475804B2.

Overview of reported Max Effect across a group of molecules:
system: Ebola virus; experiment: microbe, parasite or virus in culture; format: cell-based, Ebolavirus (EBOV)
Measured attribute: Max Effect

Molecule	Measured attribute	Experimental value
COc1ccc(-c2nc(C(=O)N3CCN(C)CC3)sc2-c2ccc(OC)cc2)cc1	Max Effect	0.688
CC(C(=O)[O-])c1cccc(Oc2ccccc2)c1.CC(C(=O)[O-])c1cccc(Oc2ccccc2)c1.[Ca+2] (stereo not shown)	Max Effect	0.454
C[C@H]1CCC/C=C/[C@@H]2C[C@H](O)C[C@H]2[C@H](O)/C=C/C(=O)O1	Max Effect	0.900
O=C(OC[C@H]1O[C@@H](OC(=O)c2cc(O)c(O)c(O)c2)[C@H](OC(=O)c2cc(O)c(O)c(O)c2)[C@@H](OC(=O)c2cc(O)c(O)c(O)c2)[C@@H]1OC(=O)c1cc(O)c(O)c(O)c1)c1cc(O)c(O)c(O)c1	Max Effect	0.487
CO/C1=C\C(C)=C\[C@@H](C)[C@@H](O)[C@@H](C)C/C(C)=C/C=C/[C@H](OC)[C@@H]([C@@H](C)[C@@H](O)[C@H](C)[C@@]2(O)C[C@@H](O)[C@H](C)[C@@H](C(C)C)O2)OC1=O	Max Effect	0.880
COc1cc(C[C@H]2C(=O)OC[C@@H]2Cc2ccc(OC)c(OC)c2)ccc1O [(−)-Arctigenin]	Max Effect	0.411
Cl.Cl.OCCN1CCN(CCC=C2c3ccccc3Sc3ccc(C(F)(F)F)cc32)CC1 (mixture of isomers) [Flupentixol Dihydrochloride]	Max Effect	0.660
CO[C@@H]1[C@H](O)C[C@@H](O[C@@H]2C[C@H](Oc3cc4cc5c(c(O)c4c(O)c3C)C(=O)[C@@H](O[C@H]3C[C@@H](O[C@H]4C[C@@H](O[C@H]6C[C@](C)(O)[C@@H](OC(C)=O)[C@H](C)O6)[C@H](O)[C@@H](C)O4)[C@H](O)[C@@H](C)O3)[C@H]([C@H](OC)C(=O)[C@@H](O)[C@@H](C)O)C5)O[C@H](C)[C@@H]2OC(C)=O)O[C@@H]1C	Max Effect	0.629
CNc1ccc2oc(C[C@H]3O[C@@]4(CC[C@H]3C)O[C@H]([C@H](C)C(=O)c3ccc[nH]3)[C@H](C)C[C@H]4C)nc2c1C(=O)O	Max Effect	0.789
CC(=O)c1ccc2c(c1)N(CCCN1CCC(CCO)CC1)c1ccccc1S2	Max Effect	0.641
